Reference source for all entries: ChEMBL document CHEMBL1201861

- Test system: GR-ST
- assayMethodText: cells
- Assay type: functional, cell-based
- conditionDetails: Homo sapiens
- Description: SANGER: Inhibition of human GR-ST cell growth in a cell viability assay.
pIC50: −log10 of the molar value.
measurementLabel: pIC50

Illustrative cases are given below, each with its answer.
> print(dat)
                               recordsmiles  targetentity  result
1  Cc1cnc(-c2cnc(NCCNc3ccc(C#N)cn3)nc2-c2ccc(Cl)cc2Cl)[nH]1         GR-ST  < 5.59
2  CN1CCN(CCOc2cc(OC3CCOCC3)c3c(Nc4c(Cl)ccc5c4OCO5)ncnc3c2)CC1         GR-ST  < 5.70

Param item = `Cc1ccc(Nc2nccc(N(C)c3ccc4c(C)n(C)nc4c3)n2)cc1S(N)(=O)=O` ; retrieve measured pIC50.
< 5.10

----------
- System: Panc1005;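 also: growth inhibition of human PANC-10-05 cells, measured by a cell viability assay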
- assayMethodText: cells
- Assay type: functional, cell-based, Homo sapiens
- conditionDetails: Homo sapiens, Panc1005
- Description: SANGER: Inhibition of human PANC-10-05 cell growth in a cell viability assay.
pIC50: −log10 of the molar value.
measurementLabel: pIC50

recordSmiles	pIC50
O=C(c1cc(Cc2n[nH]c(=O)c3ccccc23)ccc1F)N1CCN(C(=O)C2CC2)CC1	< 5.30
CC(=O)O[C@@]12CO[C@@H]1C[C@H](O)[C@@]1(C)C(=O)[C@H](O)C3=C(C)[C@@H](OC(=O)[C@H](O)[C@@H](NC(=O)OC(C)(C)C)c4ccccc4)C[C@@](O)([C@@H](OC(=O)c4ccccc4)[C@H]21)C3(C)C	< 8.00
C=CCNC1=C2C[C@@H](C)C[C@H](OC)[C@H](O)[C@@H](C)/C=C(\C)[C@H](OC(N)=O)[C@@H](OC)/C=C\C=C(/C)C(=O)NC(=CC1=O)C2=O	6.39

Need pIC50, item `Cc1cnc(-c2cnc(NCCNc3ccc(C#N)cn3)nc2-c2ccc(Cl)cc2Cl)[nH]1`
< 5.59

----------
- System: MOLT-4;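 also: growth inhibition of MOLT-4 cells, determined with a cell viability readout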
- assayMethodText: cells
- Assay type: functional, cell-based
- conditionDetails: Homo sapiens
- Description: SANGER: Inhibition of human MOLT-4 cell growth in a cell viability assay.
measurementLabel: IC50

Below, 2 compounds whose answers are already recorded.
compound	IC50
C=CCNC1=C2C[C@@H](C)C[C@H](OC)[C@H](O)[C@@H](C)/C=C(\C)[C@H](OC(N)=O)[C@@H](OC)/C=C\C=C(/C)C(=O)NC(=CC1=O)C2=O [TANESPIMYCIN]	> 1000 nM
O=C(c1cc(Cc2n[nH]c(=O)c3ccccc23)ccc1F)N1CCN(C(=O)C2CC2)CC1 [OLAPARIB]	> 5000 nM

Below: the item to evaluate.
Kindly state the measured IC50 obtained for CS(=O)(=O)CCNCc1ccc(-c2ccc3ncnc(Nc4ccc(OCc5cccc(F)c5)c(Cl)c4)c3c2)o1 [LAPATINIB] with MOLT-4.
> 2000 nM

----------
- Test system: NCI-H747;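 also: growth inhibition of human NCI-H747 cells, read out by a cell viability assay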
- assayMethodText: cells
- Assay type: functional, cell-based
- conditionDetails: Homo sapiens
- Description: SANGER: Inhibition of human NCI-H747 cell growth in a cell viability assay.
pIC50: −log10 of the molar value.
Kindly supply the reported pIC50 values for the records listed here.

Consider the following illustrative entries.
recordSmiles	measurementLabel	result
CS(=O)(=O)CCNCc1ccc(-c2ccc3ncnc(Nc4ccc(OCc5cccc(F)c5)c(Cl)c4)c3c2)o1	pIC50	< 5.70
CC(=O)O[C@@]12CO[C@@H]1C[C@H](O)[C@@]1(C)C(=O)[C@H](O)C3=C(C)[C@@H](OC(=O)[C@H](O)[C@@H](NC(=O)OC(C)(C)C)c4ccccc4)C[C@@](O)([C@@H](OC(=O)c4ccccc4)[C@H]21)C3(C)C	pIC50	< 8.00

Record request: pIC50 value, item `CC1=C2C[C@H]3[C@@H](CC=C4C[C@@H](O)CC[C@@]43C)[C@@H]2CC[C@]12O[C@@H]1C[C@H](C)CN[C@H]1[C@H]2C`
< 4.80
